This collection of values is drawn from patent US6169181A.

system: HIV-1 protease (Human immunodeficiency virus type 1 group M subtype B, UniProt P04585)
measurement_notes: biochemical
applied_conditions: Table I; Dose 0.123 μM; read-out: Protease % Inhib
The threshold is inclusive: inhibition at 0.123 µM of exactly 80% counts as Met; values below receive Not met.

• CCCC1(CCC)CC(O)=C(C(c2cccc(NS(=O)(=O)c3cn(C)cn3)c2)C2CC2)C(=O)O1 (stereo not shown) [Example 48] = Met
• CCC(CC1CCCOC1)c1cc(O)c(C(c2cccc(NS(=O)(=O)c3cccc4cccnc34)c2)C2CC2)c(=O)o1 (stereo not shown) [Example 145A] = Met
• Cc1ccc(S(=O)(=O)Cc2cccc(C(c3c(O)c4c(oc3=O)CCCCCC4)C3CC3)c2)cc1 (stereo not shown) [Example 13] = Not met
• CCCC1(CCC)CC(O)=C(C(c2cccc(NS(=O)(=O)c3cccc4cccnc34)c2)C2CC2)C(=O)O1 (stereo not shown) [Example 49] = Met
